TARGET ENTITY: HLA-B*0702 (Human)
MEASURED PARAMETER: binding affinity ratio (IC50 of standard peptide / IC50 of test peptide) (ratio)
// units = ratio; emit number, no label

// worked examples, binding affinity ratio (IC50 of standard peptide / IC50 of test peptide) included
In [3]: df
Out[3]:
                                     binder  units_label  observed_value
0  TPAAPAPA [p53 peptide TPAAPAPA (position 81, 8 amino acids)]        ratio          0.0041
1  SPLPSQAM [p53 peptide SPLPSQAM (position 33, 8 amino acids)]        ratio          0.0044
2  LPSQAMDDL [p53 peptide LPSQAMDDL (position 35, 9 amino acids)]        ratio          0.0038
3  KPLDGEYFTL [p53 peptide KPLDGEYFTL (position 321, 10 amino acids)]        ratio          0.0055
4  LPENNVLSPL [p53 peptide LPENNVLSPL (position 26, 10 amino acids)]        ratio           0.007

Below: the item to evaluate.
**Query** Look at this binder and give its reported binding affinity ratio (IC50 of standard peptide / IC50 of test peptide). MPEAAPPV [p53 peptide MPEAAPPV (position 66, 8 amino acids)]
**Result** 0.0028
